Target: androgen receptor (AR) (Homo sapiens, UniProt P10275, T878A)
Construct: LNCaP cells expressing ARR2PB-FireflyLuc and CMV-RenillaLuc; endogenous in cells; host or cells: LNCaP cells carrying ARR2PB-FireflyLuc and CMV-RenillaLuc reporters
Sequence (P10275 whole entry T878A): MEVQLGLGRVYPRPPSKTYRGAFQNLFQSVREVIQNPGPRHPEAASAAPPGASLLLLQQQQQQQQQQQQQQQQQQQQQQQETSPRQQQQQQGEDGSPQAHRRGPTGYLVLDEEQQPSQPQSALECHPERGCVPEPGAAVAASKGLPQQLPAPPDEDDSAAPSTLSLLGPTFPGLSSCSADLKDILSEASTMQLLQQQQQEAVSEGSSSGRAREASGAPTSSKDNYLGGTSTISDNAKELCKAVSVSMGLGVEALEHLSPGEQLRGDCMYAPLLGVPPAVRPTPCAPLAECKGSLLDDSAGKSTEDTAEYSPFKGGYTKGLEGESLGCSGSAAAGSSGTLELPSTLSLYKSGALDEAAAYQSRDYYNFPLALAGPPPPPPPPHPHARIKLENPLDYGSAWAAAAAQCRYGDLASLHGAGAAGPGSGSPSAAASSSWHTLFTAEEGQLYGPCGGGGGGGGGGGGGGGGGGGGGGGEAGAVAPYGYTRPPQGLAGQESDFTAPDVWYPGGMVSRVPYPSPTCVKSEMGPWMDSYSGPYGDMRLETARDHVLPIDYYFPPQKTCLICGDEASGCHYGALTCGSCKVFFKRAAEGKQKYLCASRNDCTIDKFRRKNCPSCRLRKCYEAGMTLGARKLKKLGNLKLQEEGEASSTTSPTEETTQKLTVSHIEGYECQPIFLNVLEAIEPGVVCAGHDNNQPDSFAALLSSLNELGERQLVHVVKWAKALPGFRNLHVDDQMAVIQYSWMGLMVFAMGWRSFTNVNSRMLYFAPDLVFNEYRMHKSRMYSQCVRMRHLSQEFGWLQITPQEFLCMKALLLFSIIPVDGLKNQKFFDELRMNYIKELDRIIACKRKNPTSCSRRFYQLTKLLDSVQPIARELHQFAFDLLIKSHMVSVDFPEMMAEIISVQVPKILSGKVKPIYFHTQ
Experiment: AR reporter assay in LNCaP cells expressing ARR2PB-FireflyLuc and CMV-RenillaLuc, antagonist mode (% remaining activity, IC50)
Assay type: cell-based
Conditions: 48 h at 37° C., class symbols A-D, read-out: IC50
pIC50: −log10 of the molar value.
propertyLabel: pIC50

{"columns": ["compound", "propertyLabel", "experimentalResult"],
 "data": [
  ["Cc1nc(-c2c[nH]c3c(Cl)nccc23)cnc1OCC(C)(C)O", "pIC50", "< 5.00"],
  ["CC(=O)N1CCC(Oc2ncc(-c3c[nH]c4cccnc34)nc2C)C1 (stereo not shown)", "pIC50", "< 5.00"]
]}

# return pIC50 for each item in the list
1. c1ccc2c(-c3cc(N4CCNCC4)ccn3)n[nH]c2c1
2. Cc1nc(-c2c[nH]c3c(C#N)cc(F)cc23)ccc1F
3. Cc1nc(-c2c[nH]c3c(C#N)cccc23)cnc1OC(C)CN (stereo not shown) [Compound 303]

Data returned:
< 5.00
> 7.00
6.00 to 7.00
